Test system: Liver
Experiment: Half life in mouse liver microsomes assessed as formation of oxidation product and glucuronide conjugate
Assay type: ADME, Microsome
READOUT_LABEL: t1/2 (h)
State just the number; it will be interpreted in h.

# SMILES_STRING, READOUT_LABEL, VALUE_MEASURED
rows = [
    ("O=c1cc(Cn2c(-c3ccccn3)nc3ccccc32)c2ccc(F)c(F)c2[nH]1", "t1/2", 1.1),
]

Task: Need t1/2 of O=c1cc(Cn2c(C3CCC3)nc3c(C(F)(F)F)ccnc32)c2ccc(F)c(F)c2[nH]1 , thanks.
Result: 1.43

Task: Dear colleague, I am looking for the recorded t1/2 of the following compound: Cc1ccnc2c1nc(C1CCC1)n2Cc1cc(=O)[nH]c2c(F)c(F)ccc12
Result: 1.53

FYI, the data here is from ChEMBL document CHEMBL1800057.
